test system: HEK293; test: Cytotoxicity against human HEK293 cells assessed as cell viability after 48 hrs by Cell Titer-Glo luminescent assay; format: cell-based; settings: hek293, 48 h
metric name: CC50

Quick one: CC50 of C[C@H](c1cccc2ccccc12)N1CCC(C(=O)NCc2ccc3c(c2)OCO3)CC1 ?
> 100 µM

Now give it for COc1cc(CNC(=O)C2CCN([C@H](C)c3cccc4ccccc34)CC2)ccn1 too.
> 100 µM

Request: COC[C@@H](NC(=O)C1CCN([C@H](C)c2cccc3ccccc23)CC1)c1ccccc1
> 100 µM
